Structures can show the parent of a compound that is named as a salt.
observation-type: melting point (°C)
Note: unit °C is implicit; provide only the numeric part.

Exercise: Please report the recorded melting point for CCCNCC1COc2cc(F)c(F)cc2O1 (stereo not drawn) (as salt: hydrobromic acid salt) .
Solution: 262

Exercise: Can you look up the measured melting point of CCCNCC1COc2ccc(OS(=O)(=O)C(F)(F)F)cc2O1 (stereo not drawn) (as salt: fumaric acid salt) for me?
Solution: 163

Exercise: I am curious: what melting point value has been reported for CCCNCC1COc2c(F)cc(F)cc2O1 (stereo not drawn) (as salt: hydrochloric acid salt) ?
Solution: 157

Exercise: // lookup melting point for Fc1ccc2c(c1)O[C@@H](CN1CCCC1)CO2 (as salt: hydrochloric acid salt)
Solution: 215

Exercise: // query melting point value for entry CCCNCC1COc2ccc(F)c(F)c2O1 (stereo not drawn) (as salt: hydrochloric acid salt)
Solution: 184

Exercise: What melting point value was documented for this compound, CCCNC[C@H]1COc2ccc(C(F)(F)F)cc2O1 (as salt: hydrochloric acid salt) ?
Solution: 166

Exercise: Record request: melting point value, item CCCNC[C@H]1COc2ccc(Br)cc2O1 (as salt: hydrochloric acid salt)
Solution: 194

Exercise: For the compound shown here, CCCNCC1COc2ccc(Cl)cc2O1 (stereo not drawn) (as salt: hydrochloric acid salt) , give the reported melting point.
Solution: 191

Exercise: Query: melting point; subject: CCCNCC1COc2ccc(F)cc2O1 (stereo not drawn) (as salt: hydrochloric acid salt)
Solution: 187
